- systemUnderTest: T1, human PVRIG-mFc protein (Acro, PVG-H5253) (human, UniProt Q6DKI7 41-171, limits assumed)
- T1 construct: bought protein
- T1 sequence (looked up): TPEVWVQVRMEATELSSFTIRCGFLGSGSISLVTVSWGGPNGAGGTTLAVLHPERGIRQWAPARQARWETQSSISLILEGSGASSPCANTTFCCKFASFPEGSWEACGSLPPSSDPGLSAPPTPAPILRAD
- protocolDescription: FACS competition, PVRIG-mFc binding to CHO-K1-CD112 cells, competitor CD112 on cells
attributeMeasured: % IC50 to COM701-hIgG4 (%)
Report as a plain number; the unit % is understood.

PVRIG-A117 (Fc fusion, heavy chain antibody VHH-hinge-CH2-CH3, human IgG1 constant part; not shown: human IgG1 hinge-CH2-CH3) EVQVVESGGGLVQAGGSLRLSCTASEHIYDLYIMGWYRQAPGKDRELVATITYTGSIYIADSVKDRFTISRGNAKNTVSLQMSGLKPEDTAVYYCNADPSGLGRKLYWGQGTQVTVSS; 134
PVRIG-A30 (Fc fusion, heavy chain antibody VHH-hinge-CH2-CH3, human IgG1 constant part; not shown: human IgG1 hinge-CH2-CH3) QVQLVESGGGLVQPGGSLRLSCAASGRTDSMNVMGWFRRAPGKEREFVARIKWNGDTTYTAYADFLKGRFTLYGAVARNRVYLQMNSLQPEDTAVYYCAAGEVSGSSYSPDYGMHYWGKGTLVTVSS; 48.1
PVRIG-A11 (Fc fusion, heavy chain antibody VHH-hinge-CH2-CH3, human IgG1 constant part; not shown: human IgG1 hinge-CH2-CH3) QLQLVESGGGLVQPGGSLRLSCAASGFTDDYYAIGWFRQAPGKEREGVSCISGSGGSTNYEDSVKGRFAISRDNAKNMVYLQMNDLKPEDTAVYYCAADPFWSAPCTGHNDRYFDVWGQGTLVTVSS; 62.8

// next entry
I have this binder here, PVRIG-A60 (Fc fusion, heavy chain antibody VHH-hinge-CH2-CH3, human IgG1 constant part; not shown: human IgG1 hinge-CH2-CH3) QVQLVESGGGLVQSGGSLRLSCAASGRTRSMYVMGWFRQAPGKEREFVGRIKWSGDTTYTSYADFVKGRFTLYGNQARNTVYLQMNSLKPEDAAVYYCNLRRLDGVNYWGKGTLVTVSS , and I need its recorded % IC50 to COM701-hIgG4. 98.9
